B1: ACSBG2 (parent)
chain: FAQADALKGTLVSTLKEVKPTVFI

Variants of: B1
test: protein stability index of a GFP-peptide fusion (GPS, HEK-293T) (PSI 1-6); higher = more stable;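 note: lentivirally expressed fusions sorted by FACS into six bins by GFP to DsRed ratio, PSI derived from sequencing read proportions per bin multiplied by bin number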
protocol conditions: c terminus: a fixed tail appended
# binarize protein stability index: threshold 3 inclusive, high side YES, low side NO

Check out these entries, answers already filled in.
• I24D = NO
• L7V = NO
• E17H = YES
• E17T = YES

Incoming: Form field: protein stability index at least 3? Entry: `G9H`
Outgoing: NO

Incoming: Now consider `T10F` .
Outgoing: NO

Incoming: Now consider `K16C` .
Outgoing: NO

Incoming: Now consider `A2Q` .
Outgoing: NO

Incoming: Now consider `T21K` .
Outgoing: NO

Incoming: Now consider `P20S` .
Outgoing: NO
